- SUBJECT OF TEST: Induced myeloid leukemia cell differentiation protein Mcl-1 (Homo sapiens) (UniProt Q07820)
- Sequence (Q07820 whole entry, looked up): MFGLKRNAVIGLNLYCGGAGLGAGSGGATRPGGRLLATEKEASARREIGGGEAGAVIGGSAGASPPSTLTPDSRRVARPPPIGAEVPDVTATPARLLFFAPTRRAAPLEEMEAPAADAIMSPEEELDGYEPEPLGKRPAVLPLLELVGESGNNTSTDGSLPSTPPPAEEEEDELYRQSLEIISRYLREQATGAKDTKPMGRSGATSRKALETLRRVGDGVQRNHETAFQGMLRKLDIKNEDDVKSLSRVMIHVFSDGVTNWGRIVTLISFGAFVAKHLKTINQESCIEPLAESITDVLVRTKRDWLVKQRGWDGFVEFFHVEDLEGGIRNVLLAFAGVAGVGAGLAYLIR
- EXPERIMENT NOTES: blockers of Bid binding to Mcl-1 – biochemical, TR-FRET, dose response (AID 1418)
- RUN PARAMETERS: Mcl-1/Bid peptide binding, TR-FRET (europium/Dy647), 2 hr
Active and inactive are the calls of the source. The rule behind the calls is not given here.
# output must be one of t (active), f (inactive)

COMPOUND	ASSIGNED CLASS
O=C(CCC(=O)c1ccc(Oc2ccccc2)cc1)Nc1cccc(Cl)c1	f
CN(C)S(=O)(=O)c1cccc(N=c2scc(-c3ccc4c(c3)NC(=O)CO4)n2CC2CCCO2)c1 (stereo unspecified)	f
COc1ccccc1C1C(C#N)=C(N)Oc2c1c(-c1ccccc1)nn2-c1ccccc1 (stereo unspecified)	f
Brc1ccccc1	f
N#Cc1c2nc3ccccc3nc2n2cc(NC(=O)c3ccc(F)cc3)ccc12	t

Now look at this one.
Exercise: Could you kindly confirm the outcome this assay logged for `CC1CCN(S(=O)(=O)c2cccc(C(=O)Nc3ccccn3)c2)CC1` ?
Key: f

* * *

- SUBJECT OF TEST: Induced myeloid leukemia cell differentiation protein Mcl-1 (Homo sapiens)
- EXPERIMENT NOTES: blockers of Bid binding to Mcl-1 – biochemical, TR-FRET, dose response (AID 1418)
- RUN PARAMETERS: Mcl-1/Bid peptide binding, TR-FRET (europium/Dy647), 2 hr
Calls of active or inactive are those of the source. The rule behind the calls is not given here.
Write down the outcome that applies. Available outcomes: Yes for active, No for inactive

CCOc1cc(N2CCOCC2)c(OCC)cc1NC(=O)CCS(=O)(=O)c1ccc(Cl)cc1 No
N=c1cc(C2(O)CCCCC2)n2c(nc3ccccc32)s1 No
CN(C)S(=O)(=O)c1cccc(-c2nn(-c3ccccc3)cc2/C=C2\SC(=S)NC2=O)c1 Yes

Exercise: Called result for `Cc1cc(=O)oc2cc(OCC(=O)N/N=C/c3cc([N+](=O)[O-])ccc3O)ccc12`
Key: Yes

Exercise: Recorded test call requested for `CC(=O)c1c(N=CN(C)C)nc(C)nc1-c1ccccc1`
Key: No

Exercise: Dear colleague, could you share the recorded outcome for `O=[N+]([O-])c1cc(Cl)cc(/C=N\Nc2ccccn2)c1O` when you have a moment?
Key: Yes

Exercise: Please let me know the test result on file for `Fc1cc2nc(-c3ccncc3)[nH]c2cc1F` .
Key: No

Exercise: Recorded call for `O=S(=O)(NCc1ccccc1)c1cccc(S(=O)(=O)N2CCOCC2)c1` ?
Key: No

Exercise: // param item: `Cc1cccc(NC(=O)c2cc(N3C(=O)CCC3=O)ccc2Cl)n1` ; yields the recorded call
Key: No

Exercise: Field: outcome | Entry: `COc1cc2[nH]c(=S)n(N(C(C)=O)C(C)=O)c(=O)c2cc1OC`
Key: No

* * *

- SUBJECT OF TEST: Induced myeloid leukemia cell differentiation protein Mcl-1 (Homo sapiens) (UniProt Q07820)
- EXPERIMENT NOTES: blockers of Bid binding to Mcl-1 – biochemical, TR-FRET, dose response (AID 1418)
- RUN PARAMETERS: Mcl-1/Bid peptide binding, TR-FRET (europium/Dy647), 2 hr
Activity calls are given as the source filed them. How the calls were made is not given here.
Assign a class; possible classes are active, inactive

Reference set (5 entries):
MOLECULE	ASSIGNED CLASS
CC1CCC(C(C)C)C(OC(=O)C[n+]2cc(-c3ccc(Cl)cc3)n3c2CCC3)C1 (stereo not drawn)	inactive
COC(=O)C(CC(C)C)NC(=O)c1ccc(F)cc1 (stereo not drawn)	inactive
O=C(N/N=C/c1ccc(F)cc1)c1cc(-c2ccco2)nc2ccccc12	active
Cc1ccc(N=Nc2c(N)[nH]n3c(=O)cc(-c4ccccc4)nc23)cc1	inactive
Cc1occc1C(=O)NNC(=O)Nc1ccc([N+](=O)[O-])cc1	inactive

Exercise: Look up the recorded call for O=C(NCC1CCCO1)c1ccc(CSCc2cccc(F)c2)o1 (stereo not drawn) in this test.
Key: inactive

Exercise: I'd appreciate the recorded outcome for Cc1cccc(NC(=O)C2C(C(=O)O)C3C=CC2C32CC2)c1C (stereo not drawn) from this test.
Key: inactive

Exercise: Dear colleague, could you share the recorded outcome for `O=C(N/N=C/c1ccncc1)c1cccc(S(=O)(=O)Nc2ccc(Cl)cc2)c1` when you have a moment?
Key: active

Exercise: State the result this test recorded for `CN1C(=O)CN=C(c2ccc(Cl)cc2)c2cc(Cl)ccc21` .
Key: inactive

* * *

- SUBJECT OF TEST: Induced myeloid leukemia cell differentiation protein Mcl-1 (Homo sapiens) (UniProt Q07820)
- EXPERIMENT NOTES: blockers of Bid binding to Mcl-1 – biochemical, TR-FRET, dose response (AID 1418)
- RUN PARAMETERS: Mcl-1/Bid peptide binding, TR-FRET (europium/Dy647), 2 hr
This listing pairs molecules with measured IC50.

Answered cases to consult:
C=CS(=O)(=O)c1sc(Cl)c(N2CCOCC2)c1[N+](=O)[O-] 1.77 µM
CCOC(=O)c1cc(-c2ccc(/C=C3/C(=O)NC(=O)C(C#N)=C3C)o2)ccc1Cl 0.79 µM

Exercise: Find the measured IC50 of `Cc1ccc(NC(=O)Cn2c(O)c(N=NC(=O)c3cc4ccccc4cc3O)c3ccccc32)cc1` and report it.
Key: 6.65 µM

* * *

- SUBJECT OF TEST: Induced myeloid leukemia cell differentiation protein Mcl-1 (Homo sapiens) (UniProt Q07820)
- EXPERIMENT NOTES: blockers of Bid binding to Mcl-1 – biochemical, TR-FRET, dose response (AID 1418)
- RUN PARAMETERS: Mcl-1/Bid peptide binding, TR-FRET (europium/Dy647), 2 hr
Calls of active or inactive are those of the source. How the calls were made is not given here.
Allowed answers: t for active, f for inactive

Cc1cccc(NC(=S)c2nc3ccccc3s2)c1 f
CCCOP(=O)(OCCC)C(NC(=O)c1ccccc1)=C(Cl)Cl t

Exercise: Please indicate how the test categorized `COC(=O)c1sccc1NC(=O)c1cc(C)on1` .
Key: f

Exercise: Just curious, what result did `COc1cccc(C(=O)N2CCN(Cc3ccccn3)CC2)c1OC` get here?
Key: f

* * *

- SUBJECT OF TEST: Induced myeloid leukemia cell differentiation protein Mcl-1 (Homo sapiens) (UniProt Q07820)
- EXPERIMENT NOTES: blockers of Bid binding to Mcl-1 – biochemical, TR-FRET, dose response (AID 1418)
- RUN PARAMETERS: Mcl-1/Bid peptide binding, TR-FRET (europium/Dy647), 2 hr
Calls of active or inactive are those of the source. No rule for the calls is given here.
METRIC: IC50

Some compounds with recorded IC50:
COMPOUND	IC50
COc1ccc(-n2cc(-c3ccc(OC(F)F)cc3)[n+]3c2CCCCC3)cc1	> 54 µM (inactive)
Nc1nc(Nc2cccc(F)c2)nc(N2CCOCC2)c1[N+](=O)[O-]	> 54 µM (inactive)

Turning to the following compound.
Exercise: Output measured IC50 for this item: CC1CN(C(=O)c2cccc(C(=O)N3CC(C)OC(C)C3)c2)CC(C)O1 (stereo not drawn)
Key: > 54 µM (inactive)

* * *

- SUBJECT OF TEST: Induced myeloid leukemia cell differentiation protein Mcl-1 (Homo sapiens)
- EXPERIMENT NOTES: blockers of Bid binding to Mcl-1 – biochemical, TR-FRET, dose response (AID 1418)
- RUN PARAMETERS: Mcl-1/Bid peptide binding, TR-FRET (europium/Dy647), 2 hr
The source made the active and inactive calls. No rule for the calls is given here.
METRIC: IC50

MOLECULE	SUBJECT OF TEST	RESULT
COc1ccc(CCNC(=O)c2ccc(Cl)cc2Cl)cc1OC	Induced myeloid leukemia cell differentiation protein Mcl-1 (Homo sapiens)	> 54 µM (inactive)

Shift focus to the following entry.
Exercise: Supply reported IC50 belonging to this molecule: `CCOC(=O)c1c(-c2ccco2)csc1NC(=O)CSc1nnc(N)s1`
Key: > 54 µM (inactive)

* * *

- SUBJECT OF TEST: Induced myeloid leukemia cell differentiation protein Mcl-1 (Homo sapiens) (UniProt Q07820)
- EXPERIMENT NOTES: blockers of Bid binding to Mcl-1 – biochemical, TR-FRET, dose response (AID 1418)
- RUN PARAMETERS: Mcl-1/Bid peptide binding, TR-FRET (europium/Dy647), 2 hr
The source made the active and inactive calls. How the calls were made is not given here.
Please reply with one of these outcomes: Yes = active, No = inactive

The examples below pair each entry with its known result.
COMPOUND	ASSIGNED CLASS
Clc1ccccc1CN1CCc2sccc2C1	No
O=C(Cn1c2ccccc2c(=O)c2ccccc21)N/N=C/c1cc([N+](=O)[O-])ccc1N1CCCCC1	Yes
CC1=C(C#N)C(=O)NC(=O)/C1=C\c1ccc(-c2cc(C)c(C)cc2[N+](=O)[O-])o1	Yes
CCN1/C(=C/C=C/c2oc3ccc4ccccc4c3[n+]2CC)Oc2ccc3ccccc3c21	Yes
O=C(O)c1ccc(N2C(=O)/C(=C/c3ccc(-c4ccc([N+](=O)[O-])cc4)o3)C=C2c2ccccc2)cc1	Yes
CCOc1ccc2nc(N3C(=O)/C(=C/c4ccc(Cl)cc4)NC3=S)sc2c1	Yes
O=C(Nc1ccc2sccc2c1)c1ccc(Cl)s1	No
O=C(CCCN1C(=O)c2ccccc2C1=O)NCCCn1ccnc1	No

Exercise: Recorded test outcome, item CN(C)CC(O)CN(c1ccccc1)c1ccccc1 (stereo not given)
Key: No

Exercise: Name the outcome recorded for COCCN1C(=O)C(=O)/C(=C(/O)c2ccc(S(=O)(=O)N3CCOCC3)cc2)C1c1cccc(Cl)c1 (stereo not given) in the assay.
Key: No
